Target: T1, human ROR2 (receptor tyrosine kinase-like orphan receptor 2) (human, UniProt Q01974 34-403, limits assumed)
T1 construct: Antigen of the ELISA, SPR and pH titration assays; also called hROR2
T1 sequence (Q01974 34-403 limits assumed): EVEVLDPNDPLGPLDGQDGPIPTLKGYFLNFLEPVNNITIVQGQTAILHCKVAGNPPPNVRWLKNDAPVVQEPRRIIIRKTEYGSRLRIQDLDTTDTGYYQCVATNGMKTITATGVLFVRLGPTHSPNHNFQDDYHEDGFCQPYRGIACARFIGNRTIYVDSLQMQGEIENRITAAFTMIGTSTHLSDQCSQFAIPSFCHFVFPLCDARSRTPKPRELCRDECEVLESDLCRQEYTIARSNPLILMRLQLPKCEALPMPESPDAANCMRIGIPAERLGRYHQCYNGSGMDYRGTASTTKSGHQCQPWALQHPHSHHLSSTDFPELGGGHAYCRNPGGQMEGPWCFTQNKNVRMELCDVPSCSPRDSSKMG
Test: affinity ELISA on human ROR2, pH 7.4
Parameters: unit not given here
Recorded metric: Affinity ELISA, pH 7.4
Answers are plain numbers.

# Binder, Affinity ELISA, pH 7.4
data = [
    ("HC-R098Q (antibody, V domains shown, CPE single point mutant of parent VH 48.6-HC-WT) VH: EVQLQQSGPELVKPGASVKISCKTSGYTFTEYTMHWMKQSHRKSLEWIGGINTNNGGTGYNQKFKGKATLTVDKSSSTAYMELRSLTSEDSAVYFCAQGSLYSYGNSYFDYWGQGTLVTVSS VL: QIVLTQSPAIMSASPGEKVTITCSATSSVSYMHWFQQKPGTSPKLWIYGTSNLASGVPARFSGSGSGTSYSLTISRMEAEDAATYYCQQRSSYPFTFGQGTKVEIK", 0.276),
    ("HC-N052V (antibody, V domains shown, CPE single point mutant of parent VH 48.6-HC-WT) VH: EVQLQQSGPELVKPGASVKISCKTSGYTFTEYTMHWMKQSHRKSLEWIGGIVTNNGGTGYNQKFKGKATLTVDKSSSTAYMELRSLTSEDSAVYFCARGSLYSYGNSYFDYWGQGTLVTVSS VL: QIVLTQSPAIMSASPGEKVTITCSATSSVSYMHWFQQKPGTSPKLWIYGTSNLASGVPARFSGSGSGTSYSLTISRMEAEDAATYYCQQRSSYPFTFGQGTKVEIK", 0.34),
]

Provide Affinity ELISA, pH 7.4 values for the following items, in order.
1. HC-W112L (antibody, V domains shown, CPE single point mutant of parent VH 48.6-HC-WT) VH: EVQLQQSGPELVKPGASVKISCKTSGYTFTEYTMHWMKQSHRKSLEWIGGINTNNGGTGYNQKFKGKATLTVDKSSSTAYMELRSLTSEDSAVYFCARGSLYSYGNSYFDYLGQGTLVTVSS VL: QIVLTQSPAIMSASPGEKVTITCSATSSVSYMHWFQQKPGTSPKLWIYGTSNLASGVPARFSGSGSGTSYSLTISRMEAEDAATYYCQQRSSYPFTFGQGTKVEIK
2. HC-G099E (antibody, V domains shown, CPE single point mutant of parent VH 48.6-HC-WT) VH: EVQLQQSGPELVKPGASVKISCKTSGYTFTEYTMHWMKQSHRKSLEWIGGINTNNGGTGYNQKFKGKATLTVDKSSSTAYMELRSLTSEDSAVYFCARESLYSYGNSYFDYWGQGTLVTVSS VL: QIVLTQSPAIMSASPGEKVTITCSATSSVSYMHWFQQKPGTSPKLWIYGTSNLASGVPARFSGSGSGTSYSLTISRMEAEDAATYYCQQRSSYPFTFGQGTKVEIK

Found:
1. 1.7
2. 0.421

Where do the numbers come from? From patent US20250161472A1.
